Below, each of the molecules is paired with its reported modified Hb (%) value.
# STUDY TARGET: sickle Hb (Hb S) (Homo sapiens)
# METHOD DESCRIPTION: Hb adduct formation study
# Type: cell-based
# TEST CONTEXT: SS cells, 20% hematocrit, 2 mM compound, mean ± SD of three experiments
Field: numeric (%). Do not append units.

Example cases with answers are listed next.
[[record]]
molecule = "CC(C)(C)OC(=O)OCc1ccc(C=O)o1 [VZHE006]"
measure = "modified Hb (%)"
assay_value = 50.0

[[record]]
molecule = "COP(=O)(OC)OCc1ccc(C=O)o1 [VZHE014]"
measure = "modified Hb (%)"
assay_value = 19.7

[[record]]
molecule = "CCCOCc1ccc(C=O)o1 [VZHE015, 5-(Propoxymethyl)-2-furan Carboxadehyde]"
measure = "modified Hb (%)"
assay_value = 39.7

[[record]]
molecule = "COCc1ccc(C=O)o1 [VZHE005, 5-(Methoxymethyl)-2-furan Carboxadehyde]"
measure = "modified Hb (%)"
assay_value = 35.3

[[record]]
molecule = "CC(C)OCc1ccc(C=O)o1 [VZHE016]"
measure = "modified Hb (%)"
assay_value = 36.4


Query CCOCc1ccc(C=O)o1 [VZHE011, 5-(Ethoxymethyl)-2-furan Carboxadehyde] yields modified Hb (%) of 40.4
